PROTOCOL TEXT: gradient 5% acetonitrile 3 min, to 50% in 2 min, to 85% in 15 min, held 3 min, 100 µL/min
EXPERIMENTAL CONTEXT: column: Zorbax Extend-C18 2.1 x 50 mm; eluents: water / acetonitrile, 0.1% formic acid
Rule for this label: condition met means RP-LC retention time is less than 900 s; condition not met means RP-LC retention time is at least 900 s.

1. CCCC(=O)Nc1ccc2nc(N3CCN(c4cccc(OC)c4)CC3)cc(C(=O)O)c2c1; condition met
2. Cc1noc(-c2nn(C)c3c2CN(C(=O)NC(C)(C)C)CC3)n1; condition met
3. COc1ccccc1-c1nc2nccc(-c3cc4ccccc4o3)n2n1; condition not met
4. CCc1nc2cc(-c3noc(-c4cccc(OC)c4)n3)ccc2o1; condition not met
5. Cc1nc2sccn2c(=O)c1NC(=O)Nc1ccc(C(C)C)cc1; condition met
6. CCC(=O)N1CCN(c2ccc(-n3c(=O)ccc4cnc5ccc(-c6cnc7ccccc7c6)cc5c43)cc2C(F)(F)F)CC1; condition met
7. C=CCN1C(=O)COc2ccc(-c3nc(NC(=O)CCc4ccccc4)sc3C)cc21; condition not met

## Input RP-LC retention time under 900 s? Item: Cc1oc(-c2ccc(C(=O)NCCN(C)C)cc2)nc1CN1CCc2ccccc21
## Output condition met

* * *

The entries below are paired with their reported RP-LC retention time.
PROTOCOL TEXT: gradient 5% acetonitrile 3 min, to 50% in 2 min, to 85% in 15 min, held 3 min, 100 µL/min
EXPERIMENTAL CONTEXT: column: Zorbax Extend-C18 2.1 x 50 mm; eluents: water / acetonitrile, 0.1% formic acid
Your answer should be a plain number; it is taken to be in s.

Use the examples below as a reference point.
1. Cc1ccc(NC(=O)Cn2nnc(C(=O)NCc3cccs3)c2N)cc1; 593
2. O=C1C2N=NN(Cc3nc(-c4ccc(Br)cc4)no3)C2C(=O)N1c1cccc(F)c1 (centres undefined); 1080
3. CNC(=O)c1ccc(-n2cccc2)nc1; 645
4. CCN1CCn2cc(S(=O)(=O)Nc3ccc(F)cc3F)cc2C1=O; 727
5. Nc1ccc(S(=O)(=O)Nc2cnc3c(Cl)cccc3n2)cc1; 719

## Input I would be grateful if you could share the reported RP-LC retention time for COc1ccc(N2CCN(C(=O)C3CC(=O)N(c4n[nH]c5cccc(F)c45)C3)CC2)cc1 (centres undefined) .
## Output 662

## Input Cool, now CCOC(=O)c1noc2nc(C)nc(NCCCN3CCN(c4cc(Cl)ccc4C)CC3)c12
## Output 948

## Input Cool, now O=S(=O)(CCOc1ccccc1)N1CCN(c2ccccc2F)CC1
## Output 1010

## Input Cool, now COc1cccc(N2CCN(c3ccnc(SCC(=O)Nc4ccc(Cl)cc4)n3)CC2)c1
## Output 805

## Input Cool, now Cc1ccc(NC(=O)C2CCCN(C(=O)C3Sc4ccccc4NC3=O)C2)cc1Cl (centres undefined)
## Output 893

## Input Cool, now O=C(Cn1cnc2nc(N3CCCC(C(=O)NC4CC4)C3)sc2c1=O)NCc1ccccc1 (centres undefined)
## Output 646

* * *

PROTOCOL TEXT: gradient 5% acetonitrile 3 min, to 50% in 2 min, to 85% in 15 min, held 3 min, 100 µL/min
EXPERIMENTAL CONTEXT: column: Zorbax Extend-C18 2.1 x 50 mm; eluents: water / acetonitrile, 0.1% formic acid
PARAMETER: RP-LC retention time (s)
Your answer should be a plain number; it is taken to be in s.

1) CCCNC(=O)C1CCN(c2ccc(SCC(=O)Nc3ccccc3OCC)nn2)CC1; 621
2) O=C(Cn1cncn1)N1CCC(c2nnc(C(F)(F)F)o2)CC1; 588
3) CC1(C(=O)NCc2ccc(F)cc2)CN(S(=O)(=O)c2ccccc2)CC(=O)N1C1CC1 (centres undefined); 816

## Input I would be grateful if you could share the reported RP-LC retention time for CN1C(=O)C2CCCCN2c2ccc(C(=O)NCCc3c[nH]c4ccccc34)cc21 (centres undefined) .
## Output 871

## Input Cool, now Cc1ccc(-c2cn(CC(=O)N3CCN(c4ccc(C)cc4)CC3)c(=O)o2)cc1
## Output 975

## Input Cool, now Cc1nn(-c2nc(-c3ccc(F)cc3)cs2)c(C)c1CC(=O)N1CCCC1
## Output 1030

## Input Cool, now COc1ccccc1CNC(=O)c1nc2cccnc2n(CC(C)C)c1=O
## Output 976

## Input Cool, now O=C(Nc1ccccc1Br)N1CCc2nc(-c3ccc(F)cc3)ncc2C1
## Output 1020

## Input Cool, now Cc1nc(-c2csc(S(=O)(=O)N3CCCC(C(=O)Nc4cccc(C)c4C)C3)c2)no1 (centres undefined)
## Output 951
